Source: PubChem BioAssay AID743287

Please respond with reported activation for every item in the list.
# ASSAY_SUMMARY: primary screen for activators of insulin secretion dependent on glucose, INS-1E cells, GLuc reporter luminescence (AID 743287);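 note: 0% = median of neutral control wells and 100% = median of IBMX positive control wells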
# MEASUREMENT_PARAMETERS: INS-1E GLuc reporter insulin secretion, 2-3 h, at 16.6 µM, stronger effect = higher value
The campaign covered roughly 370,000 compounds. About 2,300 (0.62%) were called active. Many of the other results were omitted from the sample, so actives are more common in it than they were.

Entry under test: `C[C@@H]1CCCCO[C@@H](CN(C)Cc2ccc(C(=O)Nc3ccccc3N)cc2)[C@H](C)CN([C@H](C)CO)C(=O)c2cc(N(C)C)ccc2O1` . Its activation was 4.89% (inactive)

The recorded activation for `COC(=O)C1=C(C)N(Cc2ccccc2)C(=NCCCOC(C)C)N[C@H]1c1ccccc1` is -19.7% (inactive)

// field: activation; key: O=C(COC(=O)c1ncc(Cl)c(Cl)c1Cl)NC1CCS(=O)(=O)C1 (stereo not drawn) ; value = 53.1% (active)

activation reported for this compound COC(=O)C1=C(C)N(Cc2cccc(C(F)(F)F)c2)C(=NCc2cccc(C(F)(F)F)c2)NC1c1ccccc1C(F)(F)F (stereo not drawn) : 23.9% (inactive)

Sample `O=C(COC(=O)c1ncc(Cl)c(Cl)c1Cl)NNC(=O)c1ccccc1` ; activation observed: -6.14% (inactive)

Per the records, this compound ( COC(=O)C1=C(C)N(Cc2cccc(C(F)(F)F)c2)C(=NCc2ccccc2)NC1c1ccccc1C(F)(F)F (stereo not drawn) ) has activation equal to 198% (active)

For this compound ( COC(=O)C1=C(C)N(Cc2cccc(C(F)(F)F)c2)C(=NCc2ccccc2)NC1c1ccc(Cl)cc1 (stereo not drawn) ), measured activation is 160% (active)

Entry C=CCN=C1NC(c2cccc(C(F)(F)F)c2)C(C(=O)OC)=C(C)N1C (stereo not drawn) , activation reported as -3.97% (inactive)

* * *

For each entry below, report its activation value.
# ASSAY_SUMMARY: primary screen for activators of insulin secretion dependent on glucose, INS-1E cells, GLuc reporter luminescence (AID 743287);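 note: 0% = median of neutral control wells and 100% = median of IBMX positive control wells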
# MEASUREMENT_PARAMETERS: INS-1E GLuc reporter insulin secretion, 2-3 h, at 16.6 µM, stronger effect = higher value
About 2,300 (0.62%) of roughly 370,000 compounds were called active. The entries come from a sample that favours actives as a whole.
Lab book: enter the figure in %, no units written.

# activation of `COCC(=O)N(C)C[C@H]1Oc2cc(C#CC(C)C)ccc2S(=O)(=O)N([C@H](C)CO)C[C@@H]1C` = 1.27

Entry `O=C(C1CCCC1)N1CC2(C1)[C@H](c1ccccc1)[C@H](CO)N2CCC(F)(F)F` — recorded activation = -20.6

// `COc1ccc(-c2ccccc2[C@@H]2[C@@H](C#N)N(C(=O)NC3CCCC3)[C@H]2CO)cc1` : activation value = -19.5

The recorded activation for entry `CCOc1ncccc1C(=O)NCCc1ccc(OC)cc1` equals 35.2

// field: activation; key: `CN(CCc1cnn(C)c1)Cc1cn(C)nc1-c1ccccc1F` ; value = -1.92

Just so you know, measured activation for `COCCNC(=S)N(Cc1cccnc1)Cc1ccc(OC)c(OC)c1` came out at 53.5

For reference, reported activation for `CCC(=O)N1[C@@H](CO)[C@@H](c2ccc(C3=CCCC3)cc2)C12CN(C(=O)COC)C2` stands at 3.86

activation for `Brc1ccccc1/C=N/Nc1nc2ccccc2o1` is 46.6

Looking up `Nc1nc2c(Br)ccc(Br)c2cc1C(=O)NCCc1ccccc1` , I found its activation recorded as 41.1

Lookup result for `Cc1cc(C(=O)Nc2cccc3c2O[C@H](CN(C)C(=O)Nc2ccccc2)[C@@H](C)CN([C@H](C)CO)C3=O)n(C)n1` ; measured activation: 26.8

Query COc1ccc(C2CC(=O)Nc3sc(=N)c4c(N)c(C#N)c(N)nc4c32)cc1OC (stereo not given) yields activation of 70.3

`C[C@@H]1CN([C@H](C)CO)C(=O)c2cccc(NC(=O)Nc3ccc4c(c3)OCO4)c2O[C@H]1CN(C)C(=O)Nc1ccc(F)cc1` has a reported activation of -11.4

Reported activation ( Cc1ccc2c(C)c(C(=O)N(C)CCC3CCCCO3)oc2c1C (stereo not given) ) = 0.532

The reported value for `CCC(=O)N1C[C@@H](C)[C@H](OC)CN(C)C(=O)c2ccc(NC(=O)C3CCOCC3)cc2OC[C@@H]1C` in terms of activation is 8.65

Recorded result, COc1ccc(NC(=O)C2Cc3c(-c4cccc(NC(C)=O)c4)ccnc3O2)cc1OC (stereo not given) , activation: -7.03

Noted for `COc1ccc2c3c([nH]c2c1)[C@@H](CO)N(C(=O)C1CC1)CC31CCN(C(=O)c2ccncc2)CC1` : its activation reads 1.51

Reported activation for `COc1cc2c(cc1OC)/C(=C/C(=O)c1ccc(NC(C)=O)cc1)NCC2` was 70

Reported activation of `CCOC(=O)Cn1c(=O)n(Cc2ccc(OC)cc2)c(=O)c2cccnc21` : 46.4

Lab book: activation of `COc1ccc(C(=O)Nc2ccc(C3(C#N)CCCC3)cc2)cc1OC` noted as -6.21

Memo: `NC(=O)Nc1ccccc1C(=O)NCCc1ccccc1` , reported activation: 16.6

* * *

# ASSAY_SUMMARY: primary screen for activators of insulin secretion dependent on glucose, INS-1E cells, GLuc reporter luminescence (AID 743287);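 note: 0% = median of neutral control wells and 100% = median of IBMX positive control wells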
# MEASUREMENT_PARAMETERS: INS-1E GLuc reporter insulin secretion, 2-3 h, at 16.6 µM, stronger effect = higher value
About 2,300 (0.62%) of roughly 370,000 compounds were called active. The list comes from a sample in which actives are over-represented; it also holds close analogues and randomly drawn compounds.
Field: activation. Provide a value for each of the molecules that follow.
The figure you give is taken to be in %; do not add the unit.

Lookup result for `O=C(NCC[C@@H]1CC[C@H](NC(=O)C2CCCCC2)[C@@H](CO)O1)Nc1ccc(Cl)cc1` ; measured activation: -11.1

For record `O=C(COC(=O)c1cccc(Cl)c1)Nc1ccc2[nH]c(=O)[nH]c2c1` the listed activation is 5.13

Notebook: `COc1ccc(NC(=O)N[C@H]2C=C[C@H](CC(=O)NCc3ccccn3)O[C@H]2CO)cc1` , activation read as 15.4

The molecule identified as `CCCNC(=O)N(C)C[C@H]1Oc2cc(C3=CCCCC3)ccc2S(=O)(=O)N([C@H](C)CO)C[C@H]1C` registered its activation at -12.1

Recorded result, `COc1ccc(NC(=O)N(C)C[C@H]2Oc3c(NC(=O)Nc4cccc5ccccc45)cccc3C(=O)N([C@H](C)CO)C[C@@H]2C)cc1` , activation: -5.46

Entry under test: `CCN(CCO)C(=S)Nc1cc(C(=O)OC)ccc1C(=O)OC` . Its activation was 18

Reported activation of `O=C(Cc1ccncc1)N1CC[C@@H]2[C@@H](CO)Nc3ccc(C4=CCCCC4)cc3[C@@H]21` : 8.52

The measured activation associated with `COC(=O)c1ccc(C(=O)Nc2cc(Cl)ccc2Cl)cc1NC(=O)c1ccccc1C` reads 82.6

Recorded result, `O=C(COC(=O)c1cccc(Br)c1)Nc1cccc2c1C(=O)c1ccccc1C2=O` , activation: 98

* * *

# ASSAY_SUMMARY: primary screen for activators of insulin secretion dependent on glucose, INS-1E cells, GLuc reporter luminescence (AID 743287);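 note: 0% = median of neutral control wells and 100% = median of IBMX positive control wells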
# MEASUREMENT_PARAMETERS: INS-1E GLuc reporter insulin secretion, 2-3 h, at 16.6 µM, stronger effect = higher value
Hit rate of the full screen: of about 370,000 compounds, about 2,300 (0.62%) were called active. Only a selection was taken, and actives are over-represented in it overall.
Please go through the items and note down their activation.

The compound listed as `C[C@@H]1CN([C@H](C)CO)C(=O)c2cc(NS(=O)(=O)c3ccc(F)cc3)ccc2O[C@@H]1CN(C)S(C)(=O)=O` shows activation equal to 12.8% (inactive)

Documented activation of `CCOc1ccc(NC(=O)CSc2nc3ccccc3c(=O)n2Cc2cccs2)cc1` : 60.2% (inactive)

# compound `Cc1ccc(S(=O)(=O)Nc2ccc3c(c2)C(=O)N([C@@H](C)CO)C[C@@H](C)[C@@H](CN(C)S(=O)(=O)c2ccc(C)cc2)O3)cc1` ; its activation = -10.5% (inactive)

compound `O=C(CSc1nc2ccccc2c(=O)n1CCCO)NC1CC1` , activation observed: 4.63% (inactive)

The compound listed as `C[C@@H]1CN([C@@H](C)CO)C(=O)CCCn2cc(nn2)CO[C@@H]1CN(C)C(=O)C1CCCCC1` shows activation equal to 5.75% (inactive)

The value of activation measured for the compound `C[C@@H]1CN([C@@H](C)CO)S(=O)(=O)c2ccc(-c3ccncc3)cc2O[C@@H]1CN(C)C(=O)C1CCC1` turned out to be 7.69% (inactive)

activation measured on `COc1ccccc1CNS(=O)(=O)c1cc(C(=O)NCc2ccccn2)c(Cl)cc1Cl` = 4.38% (inactive)

Per the record, `COCc1ccc(CN2CCC(Oc3ccc(C(=O)NCc4ccccn4)cc3)CC2)o1` has activation of 2.23% (inactive)

The value of activation measured for the compound `COc1ccc2oc(=O)c(C(=O)NCc3ccccn3)cc2c1` turned out to be 70.8% (active)
